conditions: 303.15 K; 101.33 kPa; Liquid; Sing-around technique in a fixed-path interferometer
Catalogue of speed of sound readings, one per entry.
The figure you give is taken to be in m/s; do not add the unit.

Use these answered entries as a reference point.
1) CCCCCCn1cc[n+](C)c1.F[B-](F)(F)F [1-hexyl-3-methylimidazolium tetrafluoroborate] : 1484.3
2) C1COCCO1 : 1323
3) CCCCCCCC[n+]1ccn(C)c1.F[B-](F)(F)F [1-methyl-3-octylimidazolium tetrafluoroborate] : 1467.3

Given C1CCOC1 [tetrahydrofuran] , state its recorded speed of sound.
1256.4

----------
Listing: refractive index of selected compounds
test: refractive index (Na D-line) (dimensionless); conditions: 293.15 K; 101.33 kPa; Liquid; Standard Abbe refractometry
± gives the expanded uncertainty stated by the source.

1) C1COCCO1 [1,4-dioxane] : 1.42215 ± 0.00037
2) C1CCOC1 [tetrahydrofuran] : 1.40696 ± 0.00039
3) CCCCCCn1cc[n+](C)c1.F[B-](F)(F)F [1-hexyl-3-methylimidazolium tetrafluoroborate] : 1.43308 ± 0.00053

Pending compound:
Please report the recorded refractive index for CCCCCCCC[n+]1ccn(C)c1.F[B-](F)(F)F [1-methyl-3-octylimidazolium tetrafluoroborate] .
1.43389 ± 0.0017

Data credit: the NIST ThermoML archive (doi:10.1016/j.jct.2013.11.027)
